Examples of molecules with documented IC50 follow.
- tested_on: UniProtKB P0DTD1
- assay_comment: biochemical
- reported_conditions: SARS-CoV-2 PLpro enzymatic fluorescence assay; read-out: PLpro IC50

COCCNCCOc1ccc(C)c(C(=O)NC2(c3cccc4ccccc34)CC2)c1 :: < 100 nM
Cc1ccc(OC[C@H]2C[C@@H](F)CN2)cc1C(=O)NC1(c2cccc3ccccc23)CC1 (single isomer, unassigned) :: < 100 nM
Cc1ccc(OCCN(C)C)cc1C(=O)NC1(c2cccc(-c3ccsc3)c2)CC1 :: 100 to 1000 nM
Cc1ccc(OCCN(C)C)cc1C(=O)NC1(c2ccccc2C(C)C)CC1 :: 100 to 1000 nM
Cc1ccc(OCCN2CCOCC2)cc1C(=O)NC1(c2cccc3ccccc23)CC1 :: 100 to 1000 nM
Cc1cc2[nH]c(=O)[nH]c2cc1C(=O)NC1(c2cccc3ccccc23)CC1 :: 100 to 1000 nM

// returns IC50 for `Cc1ccc(OCCN(C)C)cc1C(=O)NC1(c2cccc(Br)c2)CC1` with UniProtKB P0DTD1; value = 1000 to 5000 nM

UniProtKB P0DTD1 IC50 of COCCN1CCC1COc1ccc(C)c(C(=O)NC2(c3cccc4ccccc34)CC2)c1 (centres unmarked) is < 100 nM
